# System: RPMI-8226
# test-method-notes: Growth inhibition of human RPMI8226 cells assessed as cell growth at 10 uM by sulforhodamine B assay
# Format: functional
# condition-notes: read-out: Activity
Measured growth at 10 µM by item

{"columns": ["chemical-structure", "system-name", "growth at 10 µM [%]"],
 "data": [
  ["CC(C)=CC(=O)O[C@@H]1CC(C)(C)C[C@H]2C3=CC[C@@H]4[C@@]5(C)CC[C@H](O)C(C)(C)[C@@H]5CC[C@@]4(C)[C@]3(C)CC[C@@]12C(=O)O", "RPMI-8226", 23.7],
  ["CC(C)=CC(=O)O[C@@H]1CC(C)(C)C[C@H]2C3=CC[C@@H]4[C@@]5(C)CCC(=O)C(C)(C)[C@@H]5CC[C@@]4(C)[C@]3(C)CC[C@@]12C(=O)O", "RPMI-8226", 19.6],
  ["COc1cc(/C=C2\\C[C@]3(C)[C@H]4CC=C5[C@@H]6CC(C)(C)C[C@@H](O)[C@]6(C(=O)O)CC[C@@]5(C)[C@]4(C)CC[C@H]3C(C)(C)C2=O)ccc1O", "RPMI-8226", 59.5],
  ["CC1(C)C[C@@H](O)[C@]2(C(=O)O)CC[C@]3(C)C(=CC[C@@H]4[C@@]5(C)C/C(=C\\C=C\\c6ccccc6)C(=O)C(C)(C)[C@@H]5CC[C@]43C)[C@@H]2C1", "RPMI-8226", 15.6],
  ["CC1(C)C[C@@H](O)[C@]2(C(=O)O)CC[C@]3(C)C(=CC[C@@H]4[C@@]5(C)CC[C@H](O)C(C)(C)[C@@H]5CC[C@]43C)[C@@H]2C1", "RPMI-8226", 89.3],
  ["C/C=C(/C)C(=O)O[C@@H]1CC(C)(C)C[C@H]2C3=CC[C@@H]4[C@@]5(C)CCC(=O)C(C)(C)[C@@H]5CC[C@@]4(C)[C@]3(C)CC[C@@]12C(=O)O", "RPMI-8226", 16.6],
  ["CC1(C)C[C@@H](O)[C@]2(C(=O)O)CC[C@]3(C)C(=CC[C@@H]4[C@@]5(C)CCC(=O)C(C)(C)[C@@H]5CC[C@]43C)[C@@H]2C1", "RPMI-8226", 70.2],
  ["C/C=C(/C)C(=O)O[C@@H]1CC(C)(C)C[C@H]2C3=CC[C@@H]4[C@@]5(C)CC[C@H](O)C(C)(C)[C@@H]5CC[C@@]4(C)[C@]3(C)CC[C@@]12C(=O)O", "RPMI-8226", 21.1]
]}
